Cited source: patent US20250230155A1

subject.of.test: human mAChR M4 (Homo sapiens)
Construct: expressed in transfected cells
Sequence (P08173 1-479): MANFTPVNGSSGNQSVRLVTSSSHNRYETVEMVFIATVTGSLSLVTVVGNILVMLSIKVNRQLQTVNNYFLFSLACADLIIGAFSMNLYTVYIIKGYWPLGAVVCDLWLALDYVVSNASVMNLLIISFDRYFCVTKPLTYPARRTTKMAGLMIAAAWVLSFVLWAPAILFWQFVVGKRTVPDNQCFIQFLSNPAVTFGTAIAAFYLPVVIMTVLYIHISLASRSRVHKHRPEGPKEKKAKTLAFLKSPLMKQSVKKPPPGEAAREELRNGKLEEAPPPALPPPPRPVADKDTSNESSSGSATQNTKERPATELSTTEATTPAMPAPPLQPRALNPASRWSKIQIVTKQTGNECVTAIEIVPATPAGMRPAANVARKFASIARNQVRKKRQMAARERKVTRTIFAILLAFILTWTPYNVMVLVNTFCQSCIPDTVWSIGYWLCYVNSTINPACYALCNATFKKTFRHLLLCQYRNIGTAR
test.summary: mAChR M4 cell-based functional assay (calcium mobilization, CHO-K1 hM4-Gqi5 cells)
test.parameters: CHO-K1, % ACh maximum at 30 μM; human M4
Below, each entry is listed with its recorded Emax at 30 µM.
experimental.readout: Emax at 30 µM (%)

> print(dat)
                                   structure  uom  observed.measurement
 1  Cc1cc(C#N)cnc1N1CCc2ncc(Oc3cccc(F)c3F)cc2C1    %                    84
 2  Cc1cc(C(=O)N2CC(F)(F)C2)nnc1N1CCc2ncc(CC(F)(F)F)cc2C1    %                    91
 3  COc1cc(-c2cnc3c(c2)CN(c2nnc(C#N)c(C)c2C)CC3)ccn1    %                    76
 4  Cc1cc(C(=O)NCc2csc3ccccc23)cnc1N1CCc2ncc(-c3cn(C)nc3C)cc2C1    %                    89
 5  [2H]C1([2H])N(c2cnc3c(c2)CN(c2ncc(C#N)cc2C)CC3)c2ccnn2C([2H])([2H])C1([2H])[2H]    %                   110
 6  Cc1c(C(=O)NCc2cncs2)nnc(N2CCc3ncc(C(F)(F)F)cc3C2)c1C    %                   101
 7  Cc1cc(C#N)nnc1N1CCc2ncc(Oc3cc(F)ccc3F)cc2C1    %                    84
 8  Cc1cc(C(=O)NCc2ccnn2C)cnc1N1CCc2ncccc2C1    %                    68
 9  Cc1cc(C(=O)NC2(c3ccccn3)CC2)nnc1N1CCc2ncc(N3CCCn4nccc43)cc2C1    %                   114
10  Cc1cc(C(=O)NCc2ccc3c(c2)CC(=O)N3)cnc1N1CCc2ncccc2C1    %                    47
11  Cc1c(Cl)nc(C(F)(F)F)nc1N1CCc2ncc(-c3ccc(N(C)C)nc3)cc2C1    %                    19
12  Cc1cc(C(=O)N2CC(F)(F)C2)nnc1N1CCc2ncc(N3CCCn4nccc43)cc2C1    %                   105
13  Cc1nn(C)cc1-c1cnc2c(c1)CN(c1nc(N3CCCC3)nc(C)c1C)CC2    %                    78
14  Cc1cc(C#N)cnc1N1CCc2ncc(-c3cnn(CC(C)C)c3)cc2C1    %                    76
15  Cc1c(C#N)nnc(N2CCc3ncc(Nc4ccncc4F)cc3C2)c1C    %                    97
16  Cc1cc(C(=O)NCc2nccs2)cnc1N1CCc2ncc(-c3ccn(C)n3)cc2C1    %                    87
17  [2H]C([2H])([2H])c1cnc2c(c1)CN(c1nnc(C(=O)N3CC(F)(F)C3)cc1C)CC2    %                    71
18  Cc1cc(C(=O)N2CCOCC2)nnc1N1CCc2ncc(CC(F)(F)F)cc2C1    %                    69
19  Cc1ccc(-c2cnc3c(c2)CN(c2nnc(C#N)c(C)c2C)CC3)cn1    %                    93
20  Cc1cc(C#N)cnc1N1CCc2ncc(Oc3ccc(F)cc3F)cc2C1    %                    90
21  [2H]C1([2H])Cc2ncc(Nc3ccccc3F)cc2C([2H])([2H])N1c1nnc(C#N)cc1C    %                    86
22  Cc1cc(C(=O)N2CC(F)C2)nnc1N1CCc2ncc(N3CCCn4nccc43)cc2C1    %                   111
23  Cc1cc(C(=O)N2CC(C(F)F)C2)nnc1N1CCc2ncc(-c3ccnn3C)cc2C1    %                    74
24  Cc1cc(C#N)nnc1N1CCc2ncc(N3CCCn4nc(C5CC5)cc43)cc2C1    %                    87
25  Cc1cc(C#N)cnc1N1CCc2ncc(-c3ccnc(F)c3)cc2C1    %                    81
26  Cc1c(C#N)nnc(N2CCc3ncc(-c4ccnc(Cl)c4F)cc3C2)c1C    %                    50
27  Cc1nc(N2CCCC2)nc(N2CCc3ncc(Nc4ccnn4C)cc3C2)c1C    %                    98
28  Cc1cc(C#N)cnc1N1CCc2ncc(-c3ccc(N(C)C)nc3)cc2C1    %                    74
29  Cc1cnccc1Nc1cnc2c(c1)CN(c1nnc(C#N)c(C)c1C)CC2    %                    74
30  Cc1cnc2c(c1)CN(c1nnc(C(=O)NCc3ccncc3)c(C)c1C)CC2    %                    97
31  Cc1c(Cl)nc(C(F)(F)F)nc1N1CCc2ncc(Nc3cccnc3F)cc2C1    %                    82
32  Cc1nc(Cl)c(C)c(N2CCc3ncc(Oc4cccnc4)cc3C2)n1    %                    86
33  Cc1c(C#N)nnc(N2CCc3ncc(-c4cccnc4)cc3C2)c1C    %                    81
